The reported measurements were obtained from paper PMC6728138.

- Target System: calcineurin (CN) (Homo sapiens, UniProt Q08209)
- Construct: human calcineurin A isoforms (truncated at residue 400); made in house; host or cells: E. coli BL21 (DE3)
- Sequence (Q08209 1-400 limits assumed): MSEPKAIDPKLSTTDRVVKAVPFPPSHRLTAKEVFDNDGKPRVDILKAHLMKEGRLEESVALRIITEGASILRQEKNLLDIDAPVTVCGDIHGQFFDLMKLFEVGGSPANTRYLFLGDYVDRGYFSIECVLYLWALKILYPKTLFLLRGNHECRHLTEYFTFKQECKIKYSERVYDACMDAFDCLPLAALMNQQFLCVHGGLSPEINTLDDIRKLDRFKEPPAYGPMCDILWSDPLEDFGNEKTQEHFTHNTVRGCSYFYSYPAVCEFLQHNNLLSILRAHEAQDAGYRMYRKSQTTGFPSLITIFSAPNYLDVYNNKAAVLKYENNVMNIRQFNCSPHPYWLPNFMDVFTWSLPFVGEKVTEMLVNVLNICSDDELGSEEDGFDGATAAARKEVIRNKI
- Sequence (P63098 whole entry partner, the tested form may be a part, canonical isoform): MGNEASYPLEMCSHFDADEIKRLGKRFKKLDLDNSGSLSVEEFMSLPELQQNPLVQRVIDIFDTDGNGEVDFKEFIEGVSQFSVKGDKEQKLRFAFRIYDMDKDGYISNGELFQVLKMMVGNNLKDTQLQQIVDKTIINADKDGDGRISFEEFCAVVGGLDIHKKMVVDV
- Experiment Notes: MRBLE-pep calcineurin binding assay (concentration-dependent)
- Conditions: kd, 'Triplicate high' library
Ends that are not written are not given here.
Catalogue of Kd readings, one per entry.
Respond numerically; units are nM and should not be typed.

HPVIVVTGPH-NH2: 920

Return reported Kd; argument: `HPSIVITGPH-NH2` 880

* * *

- Target System: calcineurin (CN) (Homo sapiens, UniProt Q08209)
- Construct: human calcineurin A isoforms (truncated at residue 400); made in house; host or cells: E. coli BL21 (DE3)
- Experiment Notes: MRBLE-pep calcineurin binding assay (concentration-dependent)
- Conditions: apparent Kd, 'Triplicate low' (Figure 2C, measure not given)
- Experimental: MRBLEs were prepared by transferring a 20 μL aliquot from a 600 μL suspension (∼3000–8000 beads depending on pellet size) to a 100 μL PCR strip (20 μL for each CN concentration), exchanging buffer via 3 cycles of iterative pelleting, decanting, and resuspension with 0.1% PBST containing 5% BSA, pH = 7.5 (100 μL), and then left mixing at ∼5 °C on a rotator in the same wash buffer overnight (∼14 hr). […]
Ends that are not written are not given here.
Experimental Endpoint: Kd (µM)
Respond numerically; units are µM and should not be typed.

Return reported Kd; argument: `HPVIVVTGPH-NH2` 2
